Consider the following binders and their measured EC50 readings.
Target: T1, human PRLR ECD-Fc fusion protein (human, UniProt P16471 25-233)
T1 construct: not shown: Fc region (captured by goat anti-human Fc)
T1 sequence: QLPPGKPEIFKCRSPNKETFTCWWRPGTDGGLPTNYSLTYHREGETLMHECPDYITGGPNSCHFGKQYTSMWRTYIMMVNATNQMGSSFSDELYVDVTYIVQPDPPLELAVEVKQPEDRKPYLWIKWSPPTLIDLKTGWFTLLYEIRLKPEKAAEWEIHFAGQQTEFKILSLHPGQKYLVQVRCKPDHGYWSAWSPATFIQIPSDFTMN
Experiment: ELISA on ECD
Numeric only. Scale: nM

Some binders with known EC50 results, for comparison:
Ab18 (antibody, human IgG1, kappa, V domains shown, humanized from Ab6; G1; also called Ab1 HC.1a and Ab1 LC.1) VH: EVQLVQSGAEVKKPGSSVKVSCKASGYTFTTYWMHWVRQAPGQGLEWIGEIDPSDSYSNYNQKFKDRATLTVDKSTSTAYMELSSLRSEDTAVYYCARNGGLGPAWFSYWGQGTLVTVSS VL: DIQMTQSPSSVSASVGDRVTITCKASQYVGTAVAWYQQKPGKAPKLLIYSASNRYTGVPSRFSGSGSGTDFTLTISSLQPEDFATYYCQQYSSYPWTFGGGTKVEIKR | 0.0675
Ab45 (antibody, human IgG1, kappa, V domains shown, humanized from Ab8; G1; also called Ab3 HC.1 and Ab3 LC.1a) VH: EVQLVQSGAEVKKPGASVKVSCKASGYTFTDYNIHWVRQAPGQGLEWMGYIYPNNDGTGYNQKFKSRVTMTTDTSTSTAYMELRSLRSDDTAVYYCARGDGNYVGDMDYWGQGTTVTVSS VL: DIQMTQSPSSLSASVGDRVTITCRASENIYSYLAWYQQKPGKPPKLLVYNAKTLAEGVPSRFSGSGSGTDFTLTISSLQPEDFATYYCQHHYATPFTFGQGTKLEIKR | 0.0684

As a next step, examine the binder that follows.
# input Name the recorded EC50 for LFA102 (antibody, human IgG1, kappa, V domains shown, humanized IgG1 kappa comparator (WO 2008022295)) VH: EVQLVESGGGLVQPGGSLRLSCAVSGFTFSSYGMSWVRQAPGKRLEWVATVSSGGTYTYYPDSVKGRFTISRDNSKNTLYLQMNSLRAEDTAMYYCARHRGNYYATYYYAMDYWGQGTLVTVSS VL: DIVLTQSPDSLAVSLGERATINCKASKSVSTSGYTYMHWYQQKPGQPPKLLIYLASNRESGVPDRFSGSGSGTDFTLTISPVQAEDVATYYCQHSGELPPSFGQGTKLEIKR .
# output 0.053
